Origin of values: the supplement of paper PMC12350171

# System: P. vulgatus WT;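 also: active when median AUC fell below 0.1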
# assay_method_text: growth AUC normalised to DMSO control (median) (fraction of control); higher = less growth inhibition, active = hit call of the paper
# condition_label: 20 µM
Where a name gives a salt, the structure may show the parent alone.
Label 1 (yes) when growth AUC normalised to DMSO control is at or above 1; anything below gets 0 (no).

compound	class
C[C@H]1[C@H](NC(=O)/C(=N\OC(C)(C)C(=O)O)c2csc(N)n2)C(=O)N1S(=O)(=O)O	0 (no)
C[C@H]1COc2c(N3CCN(C)CC3)c(F)cc3c(=O)c(C(=O)O)cn1c23	0 (no)
CC[C@H]1OC(=O)[C@H](C)[C@@H](O[C@H]2C[C@@](C)(OC)[C@@H](O)[C@H](C)O2)[C@H](C)[C@@H](O[C@@H]2O[C@H](C)C[C@H](N(C)C)[C@H]2O)[C@](C)(O)C[C@@H](C)[C@@H]2N[C@@H](COCCOC)O[C@H]([C@H]2C)[C@]1(C)O	0 (no)
CN1CCN(C(c2ccccc2)c2ccc(Cl)cc2)CC1 (stereo not given) [Chlorcyclizine hydrochloride]	0 (no)
CO[C@@]1(NC(=O)Cc2cccs2)C(=O)N2C(C(=O)O)=C(COC(N)=O)CS[C@@H]21 [Cefoxitin sodium salt]	0 (no)
CCN1CCN(c2cc3c(cc2F)c(=O)c(C(=O)O)cn3C2CC2)CC1	0 (no)
CC(=O)O[C@H]1C[C@@]2(C)[C@@H](C[C@@H](O)[C@H]3[C@@]4(C)CC[C@@H](O)[C@@H](C)[C@@H]4CC[C@@]32C)/C1=C(\CCC=C(C)C)C(=O)O [Fusidic acid sodium salt]	0 (no)
Nc1cccc2c1C(=O)N(C1CCC(=O)NC1=O)C2=O (stereo not given) [Pomalidomide]	1 (yes)
CC1(C)S[C@@H]2[C@H](NC(=O)C(C(=O)O)c3ccccc3)C(=O)N2[C@H]1C(=O)O (stereo not given in full) [Carbenicillin disodium salt]	0 (no)
COc1cc2ncnc(Nc3ccc(F)c(Cl)c3)c2cc1OCCCN1CCOCC1	1 (yes)
Clc1ccc(C(c2ccccc2Cl)C(Cl)Cl)cc1 (stereo not given)	0 (no)
CNCC[C@@H](Oc1ccccc1C)c1ccccc1 [Tomoxetine hydrochloride]	0 (no)
CN1C(C(=O)Nc2ccccn2)=C(O)c2sccc2S1(=O)=O	0 (no)
COc1cc([S+](C)[O-])ccc1-c1nc2cccnc2[nH]1 (stereo not given)	1 (yes)
CC1=C(C(=O)O)N2C(=O)[C@@H](NC(=O)[C@H](N)c3ccccc3)[C@H]2SC1 [Cephalexin monohydrate]	1 (yes)
Cc1cccc(N(C)C(=S)Oc2ccc3ccccc3c2)c1 [Tolnaftate]	1 (yes)
Nc1ccc(S(=O)(=O)Nc2ccnn2-c2ccccc2)cc1	0 (no)
NC1CCN(c2nc3c(cc2F)c(=O)c(C(=O)O)cn3-c2ccc(F)cc2F)C1 (stereo not given) [Tosufloxacin hydrochloride]	0 (no)
O=C(O)c1ccccc1Nc1cccc(C(F)(F)F)c1	0 (no)

* * *

# Test system: Shigella flexneri
# assay_method_text: growth AUC normalised to DMSO control (fraction of control); higher = less growth inhibition, active = hit call of the paper
# condition_label: 20 µM
Where a name gives a salt, the structure may show the parent alone.
Outcomes: active, inactive

molecule	class
CN1CCC(=C2c3ccccc3CCc3sccc32)CC1 [Pizotifen malate]	inactive
CN(C)c1ccc(O)c2c1C[C@H]1C[C@H]3[C@H](N(C)C)C(=O)C(C(N)=O)=C(O)[C@@]3(O)C(=O)C1=C2O [Minocycline hydrochloride]	active
C=C1c2c(Cl)ccc(O)c2C(O)=C2C(=O)[C@]3(O)C(O)=C(C(N)=O)C(=O)[C@@H](N(C)C)[C@@H]3[C@@H](O)[C@H]12.O=C(O)c1cc(S(=O)(=O)O)ccc1O [Meclocycline sulfosalicylate]	active
O=C1c2c(O)cccc2Cc2cccc(O)c21	inactive
CC(C)(C)NC[C@H](O)COc1cccc2c1CCCC2=O [(-) Levobunolol hydrochloride]	inactive
CCCCNc1ccc(C(=O)OCCN(C)C)cc1 [Tetracaine hydrochloride]	inactive
NS(=O)(=O)c1cc2c(cc1Cl)NC(CC1CCCC1)NS2(=O)=O (stereo not given) [Cyclopenthiazide]	inactive
CCOc1ccc(NC(C)=O)cc1	inactive
N/C(=N\C(=O)c1nc(Cl)c(N)nc1N)NCc1ccccc1 [Benzamil hydrochloride]	inactive
COc1ccc(-c2cc(=O)c3c(O)cc(O[C@@H]4O[C@H](CO[C@@H]5O[C@@H](C)[C@H](O)[C@@H](O)[C@H]5O)[C@@H](O)[C@H](O)[C@H]4O)cc3o2)cc1O	inactive
Cc1cnc(C(=O)NCCc2ccc(S(=O)(=O)NC(=O)NC3CCCCC3)cc2)cn1 [Glipizide]	inactive
CCN(CC)CCCC(C)Nc1c2ccc(Cl)cc2nc2ccc(OC)cc12 (stereo not given) [Quinacrine dihydrochloride hydrate]	inactive
C#C[C@]1(OC(C)=O)CC[C@H]2[C@@H]3CCC4=CC(=NO)CC[C@@H]4[C@H]3CC[C@@]21CC (mixture of isomers) [Norgestimate]	inactive
Cc1c(O)c(=O)n(-c2ccccc2)n1C [Antipyrine, 4-hydroxy]	inactive
CNCC(O)c1ccc(OC(=O)C(C)(C)C)c(OC(=O)C(C)(C)C)c1 (stereo not given) [Dipivefrin hydrochloride]	inactive
